Just for reference, ChEMBL document CHEMBL1201862 is where these values come from.

A collection of compounds and their measured GI50
Tested on: SF-268
Assay: NCI tumour cell line growth inhibition, 48 h
Calls of active or inactive are those of the source. No stated cut-off is given here; in the data, active = GI50 up to about 1.1 µM and inactive = higher.
parameter measured: GI50

INSERT INTO results (compound, reported_measurement) VALUES
  ('Nc1nc(SCCNC(=O)CCc2ccc(O)cc2)nc2c1ncn2C1OC(CO)C(O)C1O (stereo not given)', '> 203 µM (inactive)'),
  ('CC(=O)OC/C=C(/CCl)CCC(Br)C(C)(C)Br.CC(=O)OC/C=C(\CCl)CCC(Br)C(C)(C)Br (stereo not given)', '> 10 µM (inactive)'),
  ('CN(C)CCNC(=O)C1COc2cc(-c3cc(=O)c4ccccc4o3)ccc2O1 (stereo not given)', '23.7 µM (inactive)'),
  ('COc1ccccc1N1C(=O)CSC1c1c[nH]c2ccccc12 (stereo not given)', '42.8 µM (inactive)'),
  ('C/C=C1\NC(=O)[C@H](Cc2ccccc2)NC(=O)[C@@H](C(C)C)NC(=O)[C@@H]([C@@H](C)CC)NC(=O)[C@H](NC(=O)[C@H](NC(=O)[C@H](CCCN)NC(=O)[C@H]2CCCN2C(=O)[C@H](NC(=O)[C@@H](NC(=O)[C@@H](NC(=O)[C@H](NC(=O)CCCC(C)C)C(C)C)[C@@H](C)O)C(C)C)C(C)C)[C@@H](C)CC)[C@@H](C)OC(=O)[C@H](C(C)C)NC1=O', '1.42 µM (inactive)'),
  ('CCCCCCCC1(N=[N+]=[N-])C(=O)Nc2ccccc2C1=O (stereo not given)', '15.6 µM (inactive)'),
  ('CNC(=O)C1OC(n2cnc3c(NCc4cccc(I)c4)nc(Cl)nc32)C(O)C1O (stereo not given)', '11.4 µM (inactive)'),
  ('CCC1(c2ccc(N3C(=O)c4cc(OC)c(OC)cc4C3=O)cc2)CCC(=O)NC1=O (stereo not given)', '> 10 µM (inactive)'),
  ('CCN(CC)CCCn1c(=O)c2cccnc2n2c3c(=O)n(C)c(=O)n(C)c3nc12', '> 100 µM (inactive)'),
  ('Nc1nc(S)c2c(N)n[nH]c2c1C(=O)Nc1ccc(Cl)cc1', '> 100 µM (inactive)');

---

Tested on: KM12
Experiment: NCI tumour cell line growth inhibition, 48 h
Activity calls are given as the source filed them. Rule as the data show it: active = GI50 up to about 1.1 µM and inactive = higher.
Labels: yes (1) = active, no (0) = inactive

INSERT INTO measurements (compound, discrete_label) VALUES
  ('N#Cc1c(N)n(-c2cccc(C(=O)O)c2)c(=O)c2cc([N+](=O)[O-])ccc12', 'no (0)'),
  ('O=C(Nc1ccc(Cl)cc1)c1cc([N+](=O)[O-])ccc1O', 'no (0)'),
  ('C=CC(C)(O)/C=C/C=C(\C)C(CC1OC1(C)C)OC(=O)/C(C)=C\C (configuration not stated)', 'no (0)'),
  ('CC(C)(C)c1cc(C#N)c2c(c1)C(=O)OC2(c1ccccc1)c1ccccc1C#N (configuration not stated)', 'no (0)'),
  ('O=C(O)C1OC(n2cc(F)c(=O)[nH]c2=O)CC1O (configuration not stated)', 'no (0)'),
  ('COc1cc2ccnc(C#N)c2cc1OCc1ccccc1', 'no (0)'),
  ('O=C(O)CN1CCN(CC(=O)O)CCN(CC(=O)O)CC1', 'no (0)'),
  ('NC1=C(Br)C(=O)c2ncccc2C1=O', 'yes (1)'),
  ('O=C(NC1CCCCC1)c1c(O)[nH]c(=S)[nH]c1=O', 'no (0)'),
  ('C=CCNC(=O)CN(CC(=O)OC)C1CCCCC1N(CC(=O)OC)CC(=O)OC (configuration not stated)', 'no (0)'),
  ('C=CCn1c(=O)c(C(=O)Nc2nc(C34CC5CC(CC(C5)C3)C4)cs2)c(O)c2ccccc21', 'no (0)'),
  ('O=C1NC2(CCCCC2)C2CCCCC=C12 (configuration not stated)', 'no (0)');
